// data source = FireProtDB (doi:10.1021/bi9910169)

Assignment: determine reported unfolding enthalpy (van 't Hoff) for the given variants.
B1: Lysozyme C, P61626 (parent)
chain: MKALIVLGLVLLSVTVQGKVFERCELARTLKRLGMDGYRGISLANWMCLAKWESGYNTRATNYNAGDRSTDYGIFQINSRYWCNDGKTPGAVNACHLSCSALLQDNIADAVACAKRVVRDPQGIRAWVAWRNRCQNRDVRQYVQGCGV

Variants of: B1
Conditions: Homo sapiens; pH 3; Thermal; DSC; glycine-HCl 0.05 M; reversible: yes; structure 1LZ1; whole UniProt chain shown
Numbers only, in kcal/mol.

MKALIVLGLVLLSVTVQGKVFERCELARTLKRLGMDGYRGISLANWMCLAKWESGYNVRATNYNAGDRSTDYGIFQINSRYWCNDGKTPGAVNACHLSCSALLQDNIADAVACAKRVVRDPQGIRAWVAWRNRCQNRDVRQYVQGCGV [T58V]: 119
MKALIVLGLVLLSVTVQGKVFERCELARTLKRLGMDGYRGISLANWMCLAKWESGYNTRATNYNAGDRSADYGIFQINSRYWCNDGKTPGAVNACHLSCSALLQDNIADAVACAKRVVRDPQGIRAWVAWRNRCQNRDVRQYVQGCGV [T70A]: 114
MKALIVLGLVLLSVTVQGKVFERCELARTLKRLGMDGYRGISLANWMCLAKWESGYNTRATNYNAGDRSVDYGIFQINSRYWCNDGKTPGAVNACHLSCSALLQDNIADAVACAKRVVRDPQGIRAWVAWRNRCQNRDVRQYVQGCGV [T70V]: 113
MKALIVLGLVLLSVTVQGKVFERCELARTLKRLGMDGYRGISLANWMCLAKWESGYNARATNYNAGDRSTDYGIFQINSRYWCNDGKTPGAVNACHLSCSALLQDNIADAVACAKRVVRDPQGIRAWVAWRNRCQNRDVRQYVQGCGV [T58A]: 117
MKALIVLGLVLLSVTVQGKVFERCELARTLKRLGMDGYRGISLANWMCLAKWESGYNTRATNYNAGDRSTDYGIFQINSRYWCNDGKAPGAVNACHLSCSALLQDNIADAVACAKRVVRDPQGIRAWVAWRNRCQNRDVRQYVQGCGV [T88A]: 110

Next up:
Would you kindly share the measured unfolding enthalpy (van 't Hoff) for MKALIVLGLVLLSVTVQGKVFERCELARTLKRLGMDGYRGISLANWMCLAKWESGYNTRATNYNAGDRSTDYGIFQINSRYWCNDGKVPGAVNACHLSCSALLQDNIADAVACAKRVVRDPQGIRAWVAWRNRCQNRDVRQYVQGCGV [T88V] ?
121
